Hey, just so you know, these numbers are from the supplement of paper PMC7877785.

List of self-splicing fitness (ln) values.
- PROTOCOL: self-splicing fitness, log relative to wild type (ln ratio); higher = more splicing; Tetrahymena group I intron in knt gene, E. coli kanamycin selection, DiMSum; sequences stand for … in CUCUCU…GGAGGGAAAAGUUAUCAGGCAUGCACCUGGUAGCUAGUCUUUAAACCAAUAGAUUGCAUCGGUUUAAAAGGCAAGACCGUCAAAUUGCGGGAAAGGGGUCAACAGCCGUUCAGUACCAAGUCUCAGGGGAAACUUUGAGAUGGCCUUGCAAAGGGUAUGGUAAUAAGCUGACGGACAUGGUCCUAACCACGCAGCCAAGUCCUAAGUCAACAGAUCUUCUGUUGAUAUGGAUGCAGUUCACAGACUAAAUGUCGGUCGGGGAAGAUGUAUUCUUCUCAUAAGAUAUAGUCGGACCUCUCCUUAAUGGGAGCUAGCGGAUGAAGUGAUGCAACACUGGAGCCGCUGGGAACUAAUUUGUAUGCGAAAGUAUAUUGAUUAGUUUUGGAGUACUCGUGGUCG;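 note: selection with 25 µg/mL kanamycin versus none on LB agar overnight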
- MEASUREMENT CONDITIONS: 37 °C

# SEQUENCE RECORD, self-splicing fitness (ln)
rows = [
    ("UACCAGCAAUAUUACGACAC", -1.16),
    ("GGAUAGCAAUAUUACGGCUU", -0.309),
    ("UGUUAGCAAUAUUACGCGAG", -2.42),
    ("CGAGAGCAAUAUUACGUACC", -1.7),
    ("AUAUAGCAAUAUUACGCGGG", -1.33),
    ("AUAAAGCAAUAUUACGGUGG", -1.4),
    ("GUGUAGCAAUAUUACGGACG", -1.32),
    ("AAGAAGCAAUAUUACGGGUU", -1.41),
    ("AGCGAGCAAUAUUACGCAUA", -1.77),
    ("UGUUAGCAAUAUUACGCAAA", -0.62),
    ("UGCAAGCAAUAUUACGAGCA", -1.39),
    ("UAGAAGCAAUAUUACGUGUA", -0.392),
    ("GUCUAGCAAUAUUACGGGGU", -2.04),
    ("AAAGAGCAAUAUUACGACAU", -1.26),
    ("UGUGAGCAAUAUUACGAAUA", -2.26),
    ("AAUGAGCAAUAUUACGAAAU", -1.36),
    ("AGUGAGCAAUAUUACGUCAG", -2.56),
    ("UUCAAGCAAUAUUACGAGUA", -0.136),
    ("CAGGAGCAAUAUUACGUUUG", -1.43),
    ("UGCGAGCAAUAUUACGGGGA", -1.9),
    ("ACUAAGCAAUAUUACGGUCG", -1.47),
    ("UUGAAGCAAUAUUACGAUAC", -2.62),
    ("AGGUAGCAAUAUUACGAACG", -0.207),
    ("UCUCAGCAAUAUUACGACUA", -1.37),
    ("UCCGAGCAAUAUUACGAAGG", -1.43),
    ("UAUGAGCAAUAUUACGAGGG", -2.66),
    ("ACUUAGCAAUAUUACGCUUC", -2.18),
    ("UUCGAGCAAUAUUACGAACG", -0.783),
    ("GACGAGCAAUAUUACGCGUG", -1.77),
    ("CAAGAGCAAUAUUACGUUAU", -2.78),
    ("UACAAGCAAUAUUACGUAUU", -2.32),
    ("GCAUAGCAAUAUUACGUUCA", -0.882),
    ("UUUCAGCAAUAUUACGUCCC", -0.811),
    ("UGACAGCAAUAUUACGUCAC", -3.16),
]
